Just for reference, patent US20250163104A1 is where these values come from.

molecular target: human PD-1 / PD-L1-Ig binding on Jurkat cell line over-expressing human PD-1 (Jurkat-PD-1) (Homo sapiens, UniProt Q15116); construct: expressed in transfected cells; host or cells: Jurkat; test: Jurkat-PD-1 Cell Binding High-Content Screening Assay (CBA); assay type: cell-based; settings: Jurkat-PD-1 cells, PE-labeled PD-L1-Ig 20 nM final; read-out: Jurkat HPD1_PDL1 IC50
Sequence (Q15116 25-288): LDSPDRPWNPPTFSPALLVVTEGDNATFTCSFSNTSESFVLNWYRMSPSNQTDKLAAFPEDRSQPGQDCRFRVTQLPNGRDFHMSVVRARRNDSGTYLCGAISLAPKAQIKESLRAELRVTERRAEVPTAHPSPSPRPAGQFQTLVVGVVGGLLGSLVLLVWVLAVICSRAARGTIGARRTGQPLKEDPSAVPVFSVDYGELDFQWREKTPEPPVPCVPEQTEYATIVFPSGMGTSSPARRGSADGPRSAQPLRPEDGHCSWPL
Readings of pIC50 for the listed compounds
pIC50 here is simply -log10 of the concentration when that concentration is written in mol/L.

Measured pIC50 of CC(C)C[C@H]1NC(=O)[C@H](CCCN)NC(=O)[C@H](CCC(=O)O)NC(=O)[C@H](Cc2ccc(-c3ccccc3)cc2)NC(=O)[C@H](C(C)C)NC(=O)[C@H](Cc2c[nH]c3ccccc23)NC(=O)[C@H](CC(=O)O)NC(=O)[C@H](Cc2ccncc2)NC(=O)[C@H](Cc2ccc(OCC(=O)O)cc2)NC(=O)CSC[C@@H](C(=O)N[C@@H](C)C(N)=O)NC(=O)[C@H]([C@@H](C)O)NC(=O)[C@H](C(C)C)NC(=O)[C@H](CC2CCCCC2)NC(=O)[C@H](CCN)NC1=O [Compound 1423] : 8.00

Entry Cc1cccc(C[C@@H]2NC(=O)[C@H](CC(=O)O)NC(=O)[C@H](Cc3ccc(C(=O)O)cc3)NC(=O)[C@H](Cc3ccncc3)NC(=O)CSC[C@@H](C(=O)N[C@@H](C)C(N)=O)NC(=O)[C@H]([C@@H](C)O)NC(=O)[C@H](C(C)C)NC(=O)[C@H](CC3CCCCC3)NC(=O)[C@H](CCN)NC(=O)[C@@H](CC(C)C)NC(=O)[C@H](CCCN)NC(=O)[C@H](CCC(=O)O)NC(=O)[C@H](Cc3ccc(-c4ccccc4)cc3)NC(=O)[C@H](C(C)C)NC2=O)c1 [Compound 1417] ; pIC50 = 8.15

====

target: human PD-1 / PD-L1-Ig binding on Jurkat cell line over-expressing human PD-1 (Jurkat-PD-1) (Homo sapiens); construct: expressed in transfected cells; host or cells: Jurkat; assay: Jurkat-PD-1 Cell Binding High-Content Screening Assay (CBA); format: cell-based; settings: Jurkat-PD-1 cells, PE-labeled PD-L1-Ig 20 nM final; read-out: Jurkat HPD1_PDL1 IC50
Where a SMILES comes first, the peptide text is derived from it. Bridges are numbered along the chain shown (N, C = ends). [ ]: non-standard residue; d: D form. Bip = N[C@@H](Cc1ccc(-c2ccccc2)cc1)C(=O)O; 4Pal = N[C@@H](Cc1ccncc1)C(=O)O; Orn = NCCC[C@H](N)C(=O)O; Dab = NCC[C@H](N)C(=O)O
Observable: pIC50
The quantity pIC50 is defined as the negative base-10 logarithm of the molar concentration.

Example entries begin here.
Form field pIC50, entry CC(C)C[C@@H]1NC(=O)[C@H](CCN)NC(=O)[C@@H](CC(C)C)NC(=O)[C@H](CCCN)NC(=O)[C@H](C(C)C)NC(=O)[C@H](Cc2ccc(-c3ccccc3)cc2)NC(=O)[C@H](C(C)C)NC(=O)[C@H](Cc2c[nH]c3ccccc23)NC(=O)[C@H](CC(=O)O)NC(=O)[C@H](Cc2ccc(O)cc2)NC(=O)[C@H](Cc2ccncc2)NC(=O)CSC[C@@H](C(=O)N[C@@H](C)C(N)=O)NC(=O)[C@H]([C@@H](C)O)NC(=O)[C@H](C(C)C)NC1=O [Compound 1047] ({CH2CO}-[4Pal]YDWV[Bip]V[Orn][dL][Dab]LVTCA-NH2; thioether N-14) : 8.17

For CC(C)C[C@H]1NC(=O)[C@H](CCCN)NC(=O)[C@H](CCC(=O)O)NC(=O)[C@H](Cc2ccc(-c3ccccc3)cc2)NC(=O)[C@H](C(C)C)NC(=O)[C@H](Cc2c[nH]c3ccccc23)NC(=O)[C@H](CC(=O)O)NC(=O)[C@H](Cc2ccc(C#N)cc2)NC(=O)[C@H](Cc2ccncc2)NC(=O)CSC[C@@H](C(=O)N[C@@H](C)C(N)=O)NC(=O)[C@H]([C@@H](C)O)NC(=O)[C@H](C(C)C)NC(=O)[C@H](CC2CCCCC2)NC(=O)[C@H](CCN)NC1=O the compound record lists pIC50 as 7.49

The reported pIC50 of the compound CC(C)C[C@H]1NC(=O)[C@H](CCCN)NC(=O)[C@H](CCCNC(N)=O)NC(=O)[C@H](Cc2ccc(-c3ccccc3)cc2)NC(=O)[C@H](C(C)C)NC(=O)[C@H](Cc2c[nH]c3ccccc23)NC(=O)[C@H](CC(=O)O)NC(=O)[C@H](Cc2ccc(O)cc2)NC(=O)[C@H](Cc2ccc(OCC(=O)O)cc2)NC(=O)CSC[C@@H](C(=O)N[C@@H](C)C(N)=O)NC(=O)[C@H]([C@@H](C)O)NC(=O)[C@H](C(C)C)NC(=O)[C@H](CC2CCCCC2)NC(=O)[C@H](CCN)NC1=O was 7.84

Further cases:
Noted for CC(C)C[C@H]1NC(=O)[C@H](CCCN)NC(=O)[C@H](CCC(=O)O)NC(=O)[C@H](Cc2ccc(-c3ccccc3)cc2)NC(=O)[C@H](C(C)C)NC(=O)[C@H](Cc2cccc(C(F)(F)F)c2)NC(=O)[C@H](CC(=O)O)NC(=O)[C@H](Cc2ccc(OCC(=O)O)cc2)NC(=O)[C@H](Cc2ccncc2)NC(=O)CSC[C@@H](C(=O)N[C@@H](C)C(N)=O)NC(=O)[C@H]([C@@H](C)O)NC(=O)[C@H](C(C)C)NC(=O)[C@H](CC2CCCCC2)NC(=O)[C@H](CCN)NC1=O : its pIC50 reads 7.95

Input CCC(C)[C@@H]1NC(=O)[C@H](Cc2ccc(-c3ccccc3)cc2)NC(=O)[C@H](C(C)C)NC(=O)[C@H](Cc2cccc(C)c2)NC(=O)[C@H](CC(=O)O)NC(=O)[C@H](Cc2ccc(-c3cccc(C(=O)O)c3)cc2)NC(=O)[C@H](CN)NC(=O)CSC[C@@H](C(=O)N[C@@H](C)C(N)=O)NC(=O)[C@H]([C@@H](C)O)NC(=O)[C@H](C(C)C)NC(=O)[C@H](CC2CCCCC2)NC(=O)[C@H](CCN)NC(=O)[C@@H](CC(C)C)NC(=O)[C@H](CCCN)NC1=O (some centres unmarked) . Output pIC50: 7.85

====

target: human PD-1 / PD-L1-Ig binding on Jurkat cell line over-expressing human PD-1 (Jurkat-PD-1) (Homo sapiens, UniProt Q15116); construct: expressed in transfected cells; host or cells: Jurkat; assay: Jurkat-PD-1 Cell Binding High-Content Screening Assay (CBA); type: cell-based; details: Jurkat-PD-1 cells, PE-labeled PD-L1-Ig 20 nM final; read-out: Jurkat HPD1_PDL1 IC50
Recorded pIC50 for the following molecules
// pIC50 is dimensionless: -log10 of concentration (M)

pIC50 reading for CC(C)C[C@H]1NC(=O)[C@H](CCCN)NC(=O)[C@H](CCCNC(N)=O)NC(=O)[C@H](Cc2ccc(-c3ccccc3)cc2)NC(=O)[C@H](C(C)C)NC(=O)[C@H](Cc2c[nH]c3ccccc23)NC(=O)[C@H](CC(=O)O)NC(=O)[C@H](Cc2ccc(OCC(=O)O)cc2)NC(=O)[C@H](CN)NC(=O)CSC[C@@H](C(=O)N[C@@H](C)C(N)=O)NC(=O)[C@H]([C@@H](C)O)NC(=O)[C@H](C(C)C)NC(=O)[C@H](CCC2CCCCC2)NC(=O)[C@H](CCN)NC1=O : 7.40

Field pIC50 (entry CCCC[C@H]1NC(=O)[C@H](CCCN)NC(=O)[C@H]([C@@H](C)CC)NC(=O)[C@H](Cc2ccc(-c3ccccc3)cc2)NC(=O)[C@H](C(C)C)NC(=O)[C@H](Cc2c[nH]c3ccccc23)NC(=O)[C@H](CC(=O)O)NC(=O)[C@H](Cc2ccc(OCC(=O)O)cc2)NC(=O)[C@H](CN)NC(=O)CSC[C@@H](C(=O)N[C@@H](C)C(N)=O)NC(=O)[C@H]([C@@H](C)O)NC(=O)[C@H](C(C)C)NC(=O)[C@H](CC2CCCCC2)NC(=O)[C@H](CCN)NC1=O ) reads 7.64

====

biological target: human PD-1 / PD-L1-Ig binding on Jurkat cell line over-expressing human PD-1 (Jurkat-PD-1) (Homo sapiens); construct: expressed in transfected cells; host or cells: Jurkat; experiment: Jurkat-PD-1 Cell Binding High-Content Screening Assay (CBA); type: cell-based; settings: Jurkat HPD1_PDL1 IC50, Jurkat-PD-1 cells, PE-labeled PD-L1-Ig 20 nM final
Observable: pIC50
On this scale, pIC50 is minus log10 of a concentration expressed in M (mol/L).

# molecule CC[C@H](C)[C@@H]1NC(=O)[C@H](Cc2ccc(-c3ccccc3)cc2)NC(=O)[C@H](C(C)C)NC(=O)[C@H](Cc2cccc(Cl)c2)NC(=O)[C@H](CC(=O)O)NC(=O)[C@H](Cc2ccc(C(=O)O)cc2)NC(=O)[C@H](Cc2ccncc2)NC(=O)CSC[C@@H](C(=O)N[C@@H](C)C(N)=O)NC(=O)[C@H]([C@@H](C)O)NC(=O)[C@H](C(C)C)NC(=O)[C@H](CC2CCCCC2)NC(=O)[C@H](CCN)NC(=O)[C@@H](CC(C)C)NC(=O)[C@H](CCCN)NC1=O ; its pIC50 = 7.80
